Assay: Pharmacokinetics in mice
Type: in vivo
Settings: mouse, plasma; male CD-1 mice; 1 mg/kg, iv
Listed here are compounds together with their documented clearance.

| Compound | clearance / mL/min/kg |
| --- | --- |
| COc1ccc2c(ncc3[nH]c(=O)n(Cc4ccc(S(N)(=O)=O)cc4F)c32)n1 [Compound 102] | 26 |
| COc1ccc2c(ncc3nc(C)n(Cc4ccc(S(N)(=O)=O)nc4)c32)n1 [Compound 73] | 63 |
| COc1ccc2c(ncc3nnn(Cc4ccc(S(N)(=O)=O)cn4)c32)n1 [Compound 119] | 56 |
| COc1ccc2c(ncc3nc(C)n(Cc4ccc(S(N)(=O)=O)c(F)c4)c32)n1 [Compound 71] | 60 |
| COc1ccc2c(ncc3nc(CC#N)n(Cc4ccc(S(N)(=O)=O)c(F)c4)c32)n1 [Compound 82] | 66 |
| COc1ccc2c(ncc3ncn(Cc4ccc(S(N)(=O)=O)c(C(F)(F)F)c4)c32)n1 [Compound 65] | 92 |
| COc1ccc2c(ncc3nc(C)n(Cc4ccc(S(N)(=O)=O)cn4)c32)n1 [Compound 72] | 56 |
| COc1ccc2c(ncc3ncn(Cc4ccc(S(N)(=O)=O)cc4F)c32)n1 [Compound 62] | 105 |
